# test system: Carbonic anhydrase 2 (Homo sapiens, UniProt P00918)
# assay summary: Inhibition of human recombinant carbonic anhydrase 2 expressed in Escherichia coli by stopped flow CO2 hydration assay
The compounds listed here are annotated with their Ki.

[
  {
    "smiles code": "COc1ccc(-c2cn(-c3ccc4c(c3)S(=O)(=O)NC4=O)nn2)c(C)c1",
    "Ki": "> 50 µM"
  },
  {
    "smiles code": "COc1ccc(-c2cn(-c3ccc4c(c3)S(=O)(=O)NC4=O)nn2)cc1",
    "Ki": "> 50 µM"
  }
]

The compound Nc1ccc2c(c1)S(=O)(=O)NC2=O on Carbonic anhydrase 2 (Homo sapiens, UniProt P00918): Ki was > 50 µM

The reported Carbonic anhydrase 2 (Homo sapiens, UniProt P00918) Ki of O=C1NS(=O)(=O)c2cc(-n3cc(CO[C@@H]4O[C@H](CO)[C@@H](O)[C@H](O)[C@H]4O)nn3)ccc21 is > 50 µM

Lab entry: Carbonic anhydrase 2 (Homo sapiens, UniProt P00918) assay, compound O=C1NS(=O)(=O)c2cc(-n3cc(-c4ccccc4C(F)(F)F)nn3)ccc21 , Ki = > 50 µM

Carbonic anhydrase 2 (Homo sapiens, UniProt P00918) assay, compound O=C1NS(=O)(=O)c2cc([N+](=O)[O-])ccc21 , recorded Ki = > 50 µM

---

# assay summary: physchem
# Description: Dissociation constant, pKa of the compound
reported metric: pKa
// no unit, no text: just the number

Quick note, pKa for O=C1NS(=O)(=O)c2ccccc21 landed at 1.3

---

# test system: Carbonic anhydrase 5B, mitochondrial (Homo sapiens)
# Sequence (Q9Y2D0 whole entry): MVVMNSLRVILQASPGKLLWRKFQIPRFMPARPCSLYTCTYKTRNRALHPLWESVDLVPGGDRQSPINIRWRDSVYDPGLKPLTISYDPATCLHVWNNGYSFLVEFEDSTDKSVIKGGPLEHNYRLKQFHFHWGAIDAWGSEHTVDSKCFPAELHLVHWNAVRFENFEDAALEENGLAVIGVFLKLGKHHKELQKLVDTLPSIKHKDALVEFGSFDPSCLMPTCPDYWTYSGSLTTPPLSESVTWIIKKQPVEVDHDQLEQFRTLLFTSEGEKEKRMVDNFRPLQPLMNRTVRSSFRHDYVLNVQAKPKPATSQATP
reported metric: Ki (µM)
Use µM as the unit, but write only the number.

Value (Ki, Carbonic anhydrase 5B, mitochondrial (Homo sapiens)) for record O=C1NS(=O)(=O)c2ccccc21 [SACCHARIN] = 7.21

---

# test system: Carbonic anhydrase 4 (Homo sapiens)
# Sequence (P22748 whole entry): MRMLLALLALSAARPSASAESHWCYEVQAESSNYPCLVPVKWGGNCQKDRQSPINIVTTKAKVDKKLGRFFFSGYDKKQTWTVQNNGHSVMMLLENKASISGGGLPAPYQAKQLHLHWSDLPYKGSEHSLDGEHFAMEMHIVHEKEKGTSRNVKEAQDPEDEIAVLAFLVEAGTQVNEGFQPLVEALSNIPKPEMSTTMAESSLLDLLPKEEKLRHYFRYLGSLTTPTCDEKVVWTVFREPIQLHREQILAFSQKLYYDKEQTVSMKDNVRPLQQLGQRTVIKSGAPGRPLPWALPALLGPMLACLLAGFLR
reported metric: Ki (µM)
Provide only the numeric value, understood in µM.

Just so you know, measured Ki for O=C1NS(=O)(=O)c2ccccc21 came out at 7.92

---

This section presents compounds with their documented pKi values.
# test system: Carbonic anhydrase 1 (Homo sapiens, UniProt P00915)
# Sequence (P00915 whole entry): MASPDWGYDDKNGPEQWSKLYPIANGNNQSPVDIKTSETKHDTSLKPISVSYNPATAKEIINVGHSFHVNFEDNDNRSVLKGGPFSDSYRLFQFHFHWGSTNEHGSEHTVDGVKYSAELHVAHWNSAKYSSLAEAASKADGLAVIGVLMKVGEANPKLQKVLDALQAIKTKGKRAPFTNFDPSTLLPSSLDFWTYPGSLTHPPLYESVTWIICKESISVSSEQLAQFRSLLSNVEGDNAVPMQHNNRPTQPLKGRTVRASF
# assay summary: Inhibition of human recombinant carbonic anhydrase 1 expressed in Escherichia coli by stopped flow CO2 hydration assay
pKi: −log10 of the molar value.

Below are worked cases with known answers.
[
  {
    "smiles code": "O=C1NS(=O)(=O)c2cc(-n3cc(-c4ccccc4)nn3)ccc21",
    "reported measurement": "< 4.30"
  },
  {
    "smiles code": "O=C1NS(=O)(=O)c2cc([N+](=O)[O-])ccc21",
    "reported measurement": "< 4.30"
  }
]

// pKi lookup, compound = Nc1ccc2c(c1)S(=O)(=O)NC2=O , result: < 4.30

Entry Cc1cc(-c2cn(-c3ccc4c(c3)S(=O)(=O)NC4=O)nn2)ccc1F , pKi reported as < 4.30

// field: pKi; key: O=C1NS(=O)(=O)c2cc(-n3cc(CO[C@@H]4O[C@H](CO)[C@@H](O)[C@H](O)[C@H]4O)nn3)ccc21 ; value = < 4.30

The compound identified as Cc1cccc(-c2cn(-c3ccc4c(c3)S(=O)(=O)NC4=O)nn2)c1 registered its pKi at < 4.30

---

# test system: Carbonic anhydrase 9 (Homo sapiens, UniProt Q16790)
# assay summary: Inhibition of human recombinant carbonic anhydrase 9 expressed in Escherichia coli by stopped flow CO2 hydration assay
pKi: −log10 of the molar value.
reported metric: pKi

[
  {
    "smiles code": "Cc1cccc(-c2cn(-c3ccc4c(c3)S(=O)(=O)NC4=O)nn2)c1",
    "reported metric": "pKi",
    "reported measurement": 7.05
  },
  {
    "smiles code": "Cc1cc(-c2cn(-c3ccc4c(c3)S(=O)(=O)NC4=O)nn2)ccc1F",
    "reported metric": "pKi",
    "reported measurement": 7.32
  },
  {
    "smiles code": "[N-]=[N+]=Nc1ccc2c(c1)S(=O)(=O)NC2=O",
    "reported metric": "pKi",
    "reported measurement": 6.33
  },
  {
    "smiles code": "Nc1ccc2c(c1)S(=O)(=O)NC2=O",
    "reported metric": "pKi",
    "reported measurement": 6.21
  },
  {
    "smiles code": "O=C1NS(=O)(=O)c2cc(-n3cc(-c4ccccc4)nn3)ccc21",
    "reported metric": "pKi",
    "reported measurement": 6.32
  },
  {
    "smiles code": "COc1ccc(-c2cn(-c3ccc4c(c3)S(=O)(=O)NC4=O)nn2)cc1",
    "reported metric": "pKi",
    "reported measurement": 6.47
  }
]

[a] O=C1NS(=O)(=O)c2cc(-n3cc(-c4ccccc4C(F)(F)F)nn3)ccc21
[b] O=C1NS(=O)(=O)c2cc(-n3cc(CO[C@@H]4O[C@H](CO)[C@@H](O)[C@H](O)[C@H]4O)nn3)ccc21
[c] COc1ccc(-c2cn(-c3ccc4c(c3)S(=O)(=O)NC4=O)nn2)c(C)c1
# ascending order, key=pKi As an answer, provide the labels arranged in the order called for.
a, c, b
